test: self-splicing fitness, log relative to wild type (ln ratio); higher = more splicing; Tetrahymena group I intron in knt gene, E. coli kanamycin selection, DiMSum; sequences stand for … in CUCUCU…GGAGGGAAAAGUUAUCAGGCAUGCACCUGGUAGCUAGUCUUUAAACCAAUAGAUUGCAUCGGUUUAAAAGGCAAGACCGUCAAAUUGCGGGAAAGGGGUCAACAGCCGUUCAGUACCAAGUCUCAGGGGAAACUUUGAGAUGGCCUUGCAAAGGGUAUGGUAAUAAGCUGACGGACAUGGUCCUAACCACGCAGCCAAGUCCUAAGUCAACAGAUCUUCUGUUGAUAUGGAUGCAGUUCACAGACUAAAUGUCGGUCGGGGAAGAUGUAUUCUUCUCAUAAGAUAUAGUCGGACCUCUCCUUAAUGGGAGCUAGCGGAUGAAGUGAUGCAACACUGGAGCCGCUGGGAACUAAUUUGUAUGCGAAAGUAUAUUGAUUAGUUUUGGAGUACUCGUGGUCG; conditions: 37 °C;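 further: selection with 25 µg/mL kanamycin versus none on LB agar overnight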
// reported self-splicing fitness (ln) for each item listed
Give the value as a plain number.

Answered examples (5):
Prompt: Supply measured self-splicing fitness (ln) of UAUCAGCAAUAUUACGUACC in your reply.
Response: -0.91

Prompt: Supply measured self-splicing fitness (ln) of UAUAAGCAAUAUUACGUGGG in your reply.
Response: -2.05

Prompt: Supply measured self-splicing fitness (ln) of ACCGAGCAAUAUUACGACUU in your reply.
Response: -0.353

Prompt: Supply measured self-splicing fitness (ln) of GCUUAGCAAUAUUACGCGUA in your reply.
Response: -1.71

Prompt: Supply measured self-splicing fitness (ln) of CCCGAGCAAUAUUACGCGAC in your reply.
Response: -1.68

More entries:
Prompt: Supply measured self-splicing fitness (ln) of AACCAGCAAUAUUACGCGUA in your reply.
Response: -0.313

Prompt: Supply measured self-splicing fitness (ln) of AUCGAGCAAUAUUACGGGAC in your reply.
Response: -1.11

Prompt: Supply measured self-splicing fitness (ln) of CCCGAGCAAUAUUACGUGCA in your reply.
Response: -1.52

Prompt: Supply measured self-splicing fitness (ln) of CGCUAGCAAUAUUACGGACG in your reply.
Response: -0.45

Prompt: Supply measured self-splicing fitness (ln) of ACUUAGCAAUAUUACGAGGG in your reply.
Response: -2.65

Prompt: Supply measured self-splicing fitness (ln) of UUCCAGCAAUAUUACGAAGA in your reply.
Response: -0.671

Prompt: Supply measured self-splicing fitness (ln) of GGCGAGCAAUAUUACGUACA in your reply.
Response: 0.151
